- Test Name: chemical genetic growth profiling, strain panel (AID 1159580);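 further: tested at 20 µM; growth read once vehicle control cultures reached saturation at 30 °C; 1 = growth at the plate median or of vehicle wells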
- Cond: S. cerevisiae deletion strains, growth OD, locus YDR159W, strain sac3, stronger effect = lower value
Among all 5,500 compounds or so, about 2,000 (36%) were called active. Another 18% or so got no clear call; they are omitted. This is one part of the list.
Could you please report measured normalized growth for the items listed next?
Output: the number by itself.

So what's the measured normalized growth for this one? C[C@]12CCC3C(CC[C@H]4CC(=O)CC[C@]34C)C1CCC2=O (stereo not given in full)
0.799

Look up normalized growth for this molecule: CC(C)CCCC(C)[C@H]1CCC2C3CC[C@H]4CC(=O)CC[C@]4(C)C3CC[C@@]21C (stereo not given in full)
0.984

Suppose we examine the molecule Cc1nccc2c1[nH]c1ccccc12 ; what normalized growth value has been reported?
0.989

Report normalized growth for COc1ccc(Cc2nccc3cc(OC)c(OC)cc23)cc1OC please.
0.962

Quick check: normalized growth of COc1ccc2c(c1)[nH]c1c(C)nccc12 ?
1.01

Give the measured normalized growth of C[C@]12CCC3C(CC[C@H]4C[C@@H](O)CC[C@]34C)C1CCC2=O (stereo not given in full) .
0.938

So what's the measured normalized growth for this one? C[N+]1(C)C2CC[C@H]1CC(OC(=O)C(O)c1ccccc1)C2 (stereo not given in full)
1.03

Need normalized growth, item Cc1ncc([N+](=O)[O-])n1CCO
1.02

Field request: normalized growth | item: O=C(/C=C/C(=O)Oc1ccccc1C(=O)O)Oc1ccccc1C(=O)O
0.971

Param item = CC(=O)O[C@@H]1CC2C(C)(C)[C@H](O)C[C@H](O)[C@]2(C)C2CC[C@@]3(C)C(=CC(=O)O[C@H]3c3ccoc3)[C@@]21C (stereo not given in full) ; retrieve measured normalized growth.
0.978

====

For each of the compounds below, state its normalized growth.
- Test Name: chemical genetic growth profiling, strain panel (AID 1159580);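 further: tested at 20 µM; growth read once vehicle control cultures reached saturation at 30 °C; 1 = growth at the plate median or of vehicle wells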
- Cond: S. cerevisiae deletion strains, growth OD, locus YLR357W, strain rsc2, stronger effect = lower value
The campaign covered roughly 5,500 compounds. About 2,000 (36%) were called active. Inconclusive results (about 18%) are left out. The list shows a part of the results.
Answer with a number only.

Param item = COC(=O)C[C@H]1C(C)(C)[C@@H](OC(C)=O)[C@@H]2CC3C4CC(=O)O[C@@H](c5ccoc5)[C@]4(C)CCC3[C@@]1(C)C2=O (stereo partly specified) ; retrieve measured normalized growth.
1.03

Any idea what its normalized growth is? The compound is CCOc1ccc(Cc2nccc3cc(OCC)c(OCC)cc23)cc1OCC
0.899

# lookup: normalized growth of COc1ccc2c(=O)c(CC(=O)O)coc2c1
0.988

Field request: normalized growth | item: CNC(=O)CSP(=S)(OC)OC
0.986

Can you share its normalized growth? I mean this compound: O=C(O)c1cccc(O)c1O
1.01

Recorded normalized growth of COP(=S)(OC)SCn1nnc2ccccc2c1=O , please.
0.885

Reported normalized growth for COc1ccc(Cc2nccc3cc(OC)c(OC)cc23)cc1OC : what is it?
0.972

Need normalized growth of C[C@H]1C(=O)O[C@@H]2CCN3CC=C(COC(=O)[C@](C)(O)[C@]1(C)O)[C@H]23 , thanks.
0.979

Give the measured normalized growth of C[N+]1(C)CCc2cc3c(cc2[C@H]1C1OC(=O)c2c1ccc1c2OCO1)OCO3 (stereo partly specified) .
0.956

GET /values?readout=normalized growth&item= CCCC(=O)Nc1ncnc2c1ncn2C1O[C@@H]2COP(=O)(O)O[C@H]2[C@H]1OC(=O)CCC (stereo partly specified)
1

Can you look up the measured normalized growth of CC(C)=CCC1=C(O)c2ccccc2C(=O)C1=O for me?
0.837

====

- Test Name: chemical genetic growth profiling, strain panel (AID 1159580);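 further: tested at 20 µM; growth read once vehicle control cultures reached saturation at 30 °C; 1 = growth at the plate median or of vehicle wells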
- Cond: S. cerevisiae deletion strains, growth OD, locus YOR231W, strain MKK1
About 2,000 (36%) of roughly 5,500 compounds were called active. Another 18% or so got no clear call; they are omitted. No stated cut-off is given here; in the data, active means normalized growth mostly below about 0.91 (no sharp cut-off); inconclusive means no clear call, values can overlap the other calls; inactive means mostly above about 0.92. The list shows a part of the results.
I would appreciate it if you answered using one of these outcomes: active, inactive

Returns: the outcome recorded for CN(NC(=S)Nc1cc(Cl)ccc1Cl)c1ccc(C(F)(F)F)cc1[N+](=O)[O-] in this assay.
inactive

In this assay, the call recorded for CC(=O)N[C@@H]1[C@@H](O)[C@H](O)[C@@H](CO)O[C@H]1O was what?
inactive

Write down the call the test reported for this compound. Item: Nc1ccccc1C(=O)N/N=C\c1cc(Cl)cc(Cl)c1O
active

Recorded test outcome, item FC(F)(F)COCC(F)(F)F
inactive

What did the test return for N#Cc1c(N)sc2c1CCc1ccccc1-2 ?
inactive

Per the records of this test, what outcome belongs to O=C(/C=C/C(=O)Oc1ccccc1C(=O)O)Oc1ccccc1C(=O)O ?
inactive

# lookup: test call for O=C(N/N=C\c1cc(Cl)cc(Cl)c1O)c1ccccc1Oc1ccccc1
inactive

Name the outcome recorded for OC[C@@H](O)[C@H](O)[C@@H](O)[C@H](O)CO in the assay.
inactive

Tell me the assay call for Fc1ccc(C(c2ccc(F)cc2)N2CCN(C/C=C/c3ccccc3)CC2)cc1 please.
inactive

Look up the recorded call for COc1cc(O)c(C(=O)O)c(O)c1 in this test.
inactive

Which result was noted for this compound in the test: CCCC(=O)Nc1ncnc2c1ncn2C1O[C@@H]2COP(=O)(O)O[C@H]2[C@H]1OC(=O)CCC (stereo partly specified)
inactive

Field: outcome | Entry: O=C(Nc1ccc(Cl)cc1)c1csc([N+](=O)[O-])c1
inactive

Please state the recorded outcome for this compound: COc1cc(OC)c2c(c1Cl)OC1(C2=O)C(O)=CC(=O)CC1C (stereo unspecified)
inactive

Tell me the assay call for FC(F)(F)c1ccc(C2Sc3ccccc3N=C3c4ccccc4CC32)cc1 (stereo unspecified) please.
inactive

# outcome recorded in this test, key = COc1ccc(-c2cc(NS(=O)(=O)c3cccc(F)c3)n(-c3ccc(Cl)c(Cl)c3)n2)cc1
inactive

What call does the record list for C[N+]1(C)CCc2cc3c(cc2[C@H]1C1OC(=O)c2c1ccc1c2OCO1)OCO3 (stereo partly specified) ?
inactive

Which outcome was entered for the compound O=C1OC(Nc2ccccc2SCc2ccccc2Cl)c2ccccc21 (stereo unspecified) in this test?
inactive

So what was the verdict on C[C@]12C=CC(=O)C=C1CCC1C2CC[C@]2(C)C(=O)CCC12 (stereo partly specified) in this test?
inactive

Tell me the recorded outcome of this test for O=C(NNc1c(Cl)cccc1Cl)c1ccc([N+](=O)[O-])o1 .
inactive

Which outcome was entered for the compound c1coc(CNc2ncnc3nc[nH]c23)c1 in this test?
inactive

Call for entry CNC(=O)CSP(=S)(OC)OC :
inactive

Kindly provide the recorded test outcome for the following compound: O=C(Nc1ccc(OC(F)(F)F)cc1)Nc1cncc(C(F)(F)F)c1
inactive

Any idea what this test logged for CN(C)c1nc(=S)ss1 ?
active

Hi, sorry to bother you, what did the test record for Nc1ncnc2nc[nH]c12 ?
inactive

Assay outcome for CC(/C=C/c1ccccc1)=N/OC(=O)c1ccccc1Cl : what was it?
inactive

How was C(=NC(N=Cc1ccccc1)c1ccccc1)c1ccccc1 (stereo unspecified) classified in this test?
inactive

Hey, what did the test say about O=c1cc(-c2ccc(O)cc2)oc2cc(O[C@@H]3O[C@H](CO)[C@@H](O)[C@H](O)[C@H]3O[C@@H]3OC[C@](O)(CO)[C@H]3O)cc(O)c12 ?
inactive

Tell me the assay call for c1ccc2c(c1)[nH]c1cnccc12 please.
inactive

Could you check what this test reported for C[C@]12C=CC(=O)C=C1CCC1C2C(=O)C[C@@]2(C)C1CC[C@]2(O)C(=O)CO (stereo partly specified) ?
inactive

Hello, I am checking results. What call was entered for O=C1c2ccccc2C(=O)c2c(O)c(O)cc(O)c21 ?
active

Hi, sorry to bother you, what did the test record for CC(=O)c1ccc2c(c1)N(CCCN(C)C)c1ccccc1S2 ?
inactive

# outcome recorded in this test, key = O=C(SCc1c(Cl)cccc1Cl)c1ccc([N+](=O)[O-])o1
active

Identify the outcome logged in this assay for the compound shown: CN1CCN(C(c2ccccc2)c2ccccc2)CC1
inactive

Per the records of this test, what outcome belongs to CN(C)c1nc(N(C)C)nc(N(C)C)n1 ?
inactive

Please state the recorded outcome for this compound: CC(C)(O)CC[C@@H](O)[C@](C)(O)C1CC[C@@]2(O)C3=CC(=O)C4C[C@@H](O)[C@@H](O)C[C@]4(C)C3CC[C@]12C (stereo partly specified)
inactive

Kindly provide the recorded test outcome for the following compound: O=c1n(CCCN2CCN(c3cccc(Cl)c3)CC2)nc2ccccn12
inactive

Recorded test outcome, item O=C(OCc1ccc(Oc2ccc(Cl)cc2Cl)c([N+](=O)[O-])c1)c1ccc([N+](=O)[O-])o1
inactive

Call for entry O=C(O)CCCN1C(=O)c2cccc3cccc(c23)C1=O :
inactive

Which outcome was assigned to O=C1c2ccccc2C(=O)c2c1ccc(O)c2O in this test?
active

Hi team, can someone confirm the assay call for Cc1c(N(C)CS(=O)(=O)O)c(=O)n(-c2ccccc2)n1C ?
inactive

What is the recorded call for this compound in the test? CC1CCc2c(sc3ncnc(Sc4ccccc4)c23)C1 (stereo unspecified)
inactive

What call does the record list for COc1ccc2c(c1)[nH]c1c(C)nccc12 ?
inactive

Test call, this compound: O=c1ccc2ccc(O)c(O)c2o1
inactive

Just curious, what result did O=S(=O)(Nc1ccc(-n2nc(C(F)(F)F)cc2-c2cccs2)cc1)c1ccc(F)cc1 get here?
inactive

Any idea what this test logged for Cn1c([N+](=O)[O-])cnc1COC(N)=O ?
inactive

Query: recorded result category for O=C(N/N=C\c1ccc([N+](=O)[O-])o1)c1ccc(O)cc1 in this test
inactive
